Reported values of growth inhibition for individual entries
Protocol Description: NCI Yeast Anticancer Drug Screen. Data for the sgs1 mgt1 strain (AID 161);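 note: 0% = growth of cultures given vehicle only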
Condition Summary: S. cerevisiae sgs1 mgt1 strain, stronger effect = higher value; at 50.0 µM unless noted
Protocol: Growth inhibition of yeast strains with defined genetic alterations is measured as a screen for potential anti-cancer activity. Selected strains with alterations in DNA damage repair or cell cycle control were exposed to compounds and growth inhibition was measured relative to vehicle treated controls. The strain used in this assay is sgs1 mgt1
The panel holds about 79,000 compounds, 15% with a hit somewhere; the sample as a whole holds those more often. The source made the active and inactive calls. Cut-off read from the data, not from the text of the source: active = growth inhibition above about 70%; inactive = the rest.
Readout Name: growth inhibition

- Compound: "CC(=O)OC1COC(N2C(=O)C(=O)c3c(C)cc(Cl)nc32)C(OC(C)=O)C1OC(C)=O (stereo unspecified)"
  Readout Name: "growth inhibition"
  Result: "-22.4% (inactive)"
- Compound: "C1C2OC2CC2OC12 (stereo unspecified)"
  Readout Name: "growth inhibition"
  Result: "-1.2% (inactive)"
- Compound: "CCOc1ccc(F)cc1"
  Readout Name: "growth inhibition"
  Result: "16.5% (inactive)"
- Compound: "CC1(C)N=C(N)N=C(N)N1c1ccc(N)cc1"
  Readout Name: "growth inhibition"
  Result: "2.75% (inactive)"
- Compound: "Cc1cccc(C)c1NC(=O)Nc1ccccc1C(N)=O"
  Readout Name: "growth inhibition"
  Result: "35.5% (inactive)"
- Compound: "CC(CN(CP(=O)([O-])[O-])CP(=O)([O-])[O-])N(CP(=O)([O-])[O-])CP(=O)([O-])[O-].N.N.[Pt+2] (stereo unspecified)"
  Readout Name: "growth inhibition"
  Result: "-18.9% (inactive)"
- Compound: "Cc1cccc(NC(=O)c2ccc(Cl)cc2Cl)c1"
  Readout Name: "growth inhibition"
  Result: "6.8% (inactive)"
- Compound: "N#CC(c1ccccc1)c1ccc(C(c2ccccc2)(c2ccccc2)C(C#N)c2ccccc2)cc1 (stereo unspecified)"
  Readout Name: "growth inhibition"
  Result: "13.9% (inactive)"
- Compound: "Cc1nc2ccccc2c2ccc([N+](=O)[O-])cc12"
  Readout Name: "growth inhibition"
  Result: "0.25% (inactive)"
- Compound: "C=CCOC(=O)C(C)OC(=O)CCC(=O)OC(C)C(=O)OCC=C (stereo unspecified)"
  Readout Name: "growth inhibition"
  Result: "4.35% (inactive)"
- Compound: "C/C(=N\\NS(=O)(=O)c1c(C)cc(C)cc1C)c1ccc[n+]([O-])n1"
  Readout Name: "growth inhibition"
  Result: "-8.4% (inactive)"

---

Protocol Description: NCI Yeast Anticancer Drug Screen. Data for the bub3 strain (AID 167)
Condition Summary: S. cerevisiae bub3 mutant strain; at 50.0 µM unless noted
About 79,000 compounds went through this panel and 15% of them were active in at least one assay; those are over-represented in the sample as a whole. The source made the active and inactive calls. Rule as the data show it: active = growth inhibition above about 70%; inactive = the rest.
Outcome codes: active, inactive

- Compound: "CCCCCC[P+](c1ccccc1)(c1ccccc1)c1ccccc1"
  Classification: "active"
- Compound: "COc1ccc(OC)c(NC(=O)CCCC(=O)C(C#N)c2ccc(CC#N)cc2)c1 (centres undefined)"
  Classification: "inactive"
- Compound: "O=C1C(c2ccccc2)=C(c2ccccc2)C1(Cl)Cl"
  Classification: "inactive"
- Compound: "Cc1ccc(OCCC(=O)N(C)C)cc1"
  Classification: "inactive"
- Compound: "CCC(C)(CC=C(C)C)c1ccncc1 (centres undefined)"
  Classification: "inactive"
- Compound: "CNC(=S)NCOCCOC(C)=O"
  Classification: "inactive"
- Compound: "C/C(=N\\NC(N)=O)c1ccc(Br)c2ccccc12"
  Classification: "inactive"
- Compound: "NC(=O)CSCC(N)=O"
  Classification: "inactive"
- Compound: "O=C(Oc1ccc(Cl)cc1)c1ccc([N+](=O)[O-])cc1"
  Classification: "inactive"
- Compound: "CC1(C)CC[C@]2(C(=O)O)CC[C@]3(C)C(=CC[C@@H]4[C@@]5(C)CC[C@H](O)C(C)(C)[C@@H]5CC[C@]43C)[C@@H]2C1"
  Classification: "inactive"
- Compound: "CCC1CN2CCc3cc(OC)c(OC)cc3C2CC1=O (centres undefined)"
  Classification: "inactive"
- Compound: "O=C(CC(=O)c1ccc(OC(=O)c2ccccc2)cc1O)c1ccccc1"
  Classification: "inactive"
- Compound: "OC1(C#CC#CC2(O)CCCCC2)CCCCC1"
  Classification: "inactive"
- Compound: "COC(=O)C(=O)C(C(=O)OC)C(=O)C(=O)Nc1ccccc1C(N)=O (centres undefined)"
  Classification: "inactive"
- Compound: "CCOP(=O)(OCC)/C(=C\\n1c(=S)[nH]c2cc(C)ccc21)C(=O)OC"
  Classification: "inactive"
- Compound: "C/C(=N/O)c1ccncc1"
  Classification: "inactive"
- Compound: "OC1COC(c2ccccc2)OC1 (centres undefined)"
  Classification: "inactive"
- Compound: "CCOC1=Nc2ccccc2C1(C)CCO (centres undefined)"
  Classification: "inactive"
- Compound: "O=[N+]([O-])c1ccc(N2N=NC(c3ccccc3)C2(c2ccccc2)N2CCOCC2)cc1 (centres undefined)"
  Classification: "inactive"
- Compound: "CNCCCn1c2ccccc2c2c3c(c(-c4ccsc4)cc21)C(=O)NC3=O"
  Classification: "inactive"
- Compound: "CCSC(=Nc1nc2ccc([N+](=O)[O-])cc2s1)SCC"
  Classification: "inactive"
- Compound: "Cc1ccc(NC(=O)Oc2ccc(-c3ccccc3)cc2Br)c(Br)c1"
  Classification: "inactive"
- Compound: "CC(=O)O[C@@H]1C(=O)C=C(C)[C@@H]2[C@@H](OC(=O)C=C(C)C)[C@H]3OC(=O)C[C@H]4[C@@H](C)[C@@H](O)[C@]5(O)OC[C@]34[C@H]5[C@@]12C"
  Classification: "active"
- Compound: "COc1ccc2nc3cc([N+](=O)[O-])ccc3c(NCCCN(C)C)c2c1"
  Classification: "inactive"
- Compound: "CCC(C(N)=O)c1ccccc1 (centres undefined)"
  Classification: "inactive"
- Compound: "CCSc1nc2n(c(=S)n1)CCN2C"
  Classification: "inactive"
- Compound: "CC1C(=O)N(c2ccccc2)NC12CCCc1ccccc12 (centres undefined)"
  Classification: "inactive"
- Compound: "CN(C)N=Nc1ccc(S(C)(=O)=O)cc1"
  Classification: "inactive"
- Compound: "[Mn+2].[NH-]C(Cc1ccc(O)cc1)C(=O)O.[NH-]C(Cc1ccc(O)cc1)C(=O)O (centres undefined)"
  Classification: "inactive"
- Compound: "CCCCCCCCCCCC"
  Classification: "inactive"
- Compound: "CCCCCCC/C=C/C1CC(=O)OC1=O (centres undefined)"
  Classification: "inactive"
- Compound: "CC(NC(C#N)CC12CC3CC(CC(C3)C1)C2)c1ccccc1 (centres undefined)"
  Classification: "inactive"
- Compound: "NC(=O)C1CC2(c3ccccn3)c3ccccc3C1c1ccccc12 (centres undefined)"
  Classification: "inactive"
- Compound: "Nc1nc(N)c2nc(SC34CC5CC(CC(C5)C3)C4)c(N)nc2n1"
  Classification: "inactive"
- Compound: "CCN(CC)c1ccc(N=Nc2ccc(-c3nc4cccnc4o3)cc2)cc1"
  Classification: "inactive"
- Compound: "CC(C)C1CO[C@]2(C)CCC(=O)N12 (some centres undefined)"
  Classification: "inactive"
- Compound: "O=C1OCC=C1Sc1ccccc1"
  Classification: "inactive"
- Compound: "CC/C(=N/NC(N)=O)c1ccc(C)cc1"
  Classification: "inactive"
- Compound: "NC1=NCC(CN2CCCCC2)O1 (centres undefined)"
  Classification: "inactive"
- Compound: "O=C(CSc1n[nH]c(=S)c2nc[nH]c12)c1ccc(Br)cc1"
  Classification: "inactive"
- Compound: "c1ccc(NN(Cc2cnccn2)c2ccccc2)cc1"
  Classification: "inactive"
- Compound: "C[N+]1(C2C=CCC(c3ccccc3)C2[N+](=O)[O-])CCCC1 (centres undefined)"
  Classification: "inactive"
- Compound: "S=c1[nH]nc(-c2n[nH]c3ccccc23)o1"
  Classification: "inactive"
- Compound: "O=CC(=O)C(O)C(O)C(O)CO (centres undefined)"
  Classification: "inactive"
- Compound: "COc1ccc(CCn2c(=O)c3ccccc3n(C)c2=O)cc1"
  Classification: "inactive"
- Compound: "COc1ccc(CCNC(=O)CCN2C(=O)CCC2=O)cc1OC"
  Classification: "inactive"
- Compound: "O=C(O)c1cc(Cl)c2ccccc2c1O"
  Classification: "inactive"
- Compound: "COc1ccc(C(=O)C(CN(C)C)CN(C)C)c(OC)c1"
  Classification: "inactive"
- Compound: "OC(CN1CCCCC1)c1cc(-c2ccccc2)no1 (centres undefined)"
  Classification: "inactive"
